Measured values drawn from ChEMBL document CHEMBL5385908 for this set.

- assayed system: Tyrosine-protein kinase Mer (Homo sapiens)
- Sequence (Q12866 whole entry): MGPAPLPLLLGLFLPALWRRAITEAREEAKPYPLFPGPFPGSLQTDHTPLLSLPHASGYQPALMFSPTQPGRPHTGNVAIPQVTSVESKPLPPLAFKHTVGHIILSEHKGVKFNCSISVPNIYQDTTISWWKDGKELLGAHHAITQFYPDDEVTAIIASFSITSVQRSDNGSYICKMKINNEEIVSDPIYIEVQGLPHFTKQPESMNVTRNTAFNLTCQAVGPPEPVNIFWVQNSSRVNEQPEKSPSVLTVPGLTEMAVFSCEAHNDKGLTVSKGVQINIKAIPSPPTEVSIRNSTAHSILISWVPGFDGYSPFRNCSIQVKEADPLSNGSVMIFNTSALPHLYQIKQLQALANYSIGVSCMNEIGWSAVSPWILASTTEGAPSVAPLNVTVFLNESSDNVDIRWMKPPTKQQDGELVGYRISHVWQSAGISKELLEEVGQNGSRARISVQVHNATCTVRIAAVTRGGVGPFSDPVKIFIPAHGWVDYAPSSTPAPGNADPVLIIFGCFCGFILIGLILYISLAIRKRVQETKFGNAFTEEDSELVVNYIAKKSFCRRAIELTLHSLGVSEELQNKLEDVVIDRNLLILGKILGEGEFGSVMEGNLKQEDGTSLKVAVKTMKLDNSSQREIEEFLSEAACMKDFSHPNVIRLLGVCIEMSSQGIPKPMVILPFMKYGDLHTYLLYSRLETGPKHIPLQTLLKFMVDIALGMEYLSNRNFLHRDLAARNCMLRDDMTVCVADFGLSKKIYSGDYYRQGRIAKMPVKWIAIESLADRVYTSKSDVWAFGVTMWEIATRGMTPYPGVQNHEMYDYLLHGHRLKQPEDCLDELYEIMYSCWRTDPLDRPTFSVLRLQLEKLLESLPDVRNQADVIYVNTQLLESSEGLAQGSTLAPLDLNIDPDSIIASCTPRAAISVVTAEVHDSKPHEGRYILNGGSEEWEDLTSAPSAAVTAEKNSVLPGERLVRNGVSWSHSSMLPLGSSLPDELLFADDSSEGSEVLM
assay readout: pIC50
Worth noting: pIC50 values are minus log10 of concentrations stated in mol/L.

Lookup: Give its pIC50 value. Item: "CNC(=O)C[C@@H](NC(=O)[C@@H](Cc1ccccc1)NC(=O)c1c(C)noc1-c1snnc1C)c1ccc(C(F)(F)F)cc1"
Found: 8.30

---

- assayed system: Proteinase-activated receptor 2 (Homo sapiens, UniProt P55085)
- Sequence (P55085 whole entry): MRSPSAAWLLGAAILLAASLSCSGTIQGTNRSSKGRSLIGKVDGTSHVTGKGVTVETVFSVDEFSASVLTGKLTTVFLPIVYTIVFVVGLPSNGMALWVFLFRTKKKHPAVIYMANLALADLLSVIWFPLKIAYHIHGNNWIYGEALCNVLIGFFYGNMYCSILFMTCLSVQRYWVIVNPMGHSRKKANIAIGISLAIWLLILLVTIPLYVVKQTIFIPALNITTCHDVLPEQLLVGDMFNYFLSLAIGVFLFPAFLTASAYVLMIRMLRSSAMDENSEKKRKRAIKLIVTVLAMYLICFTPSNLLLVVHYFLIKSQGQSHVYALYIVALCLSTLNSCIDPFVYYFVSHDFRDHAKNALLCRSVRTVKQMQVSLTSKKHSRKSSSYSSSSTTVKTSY
- method summary: Antagonist activity at PAR2 (unknown origin)
IC50 reference
Number only, in nM; omit the unit.

structure_smiles=C[C@@H](c1ccccc1)n1c(-c2cc3c(cc2Br)OCO3)nc2cc(C(=O)Nc3ccccc3)ccc21 assayed_system="Proteinase-activated receptor 2 (Homo sapiens, UniProt P55085)" recorded_result=90

Lookup: Give its IC50 value. Item: "C[C@@H](C1CCCCC1)n1c(-c2cc3c(cc2Br)OCO3)nc2cc(C(=O)Nc3ccc(C#N)cc3)ccc21"
Found: 23

---

IC50 reference
- assayed system: ATPase family AAA domain-containing protein 2 (Homo sapiens)
- Sequence (Q6PL18 whole entry, the tested form may be a part): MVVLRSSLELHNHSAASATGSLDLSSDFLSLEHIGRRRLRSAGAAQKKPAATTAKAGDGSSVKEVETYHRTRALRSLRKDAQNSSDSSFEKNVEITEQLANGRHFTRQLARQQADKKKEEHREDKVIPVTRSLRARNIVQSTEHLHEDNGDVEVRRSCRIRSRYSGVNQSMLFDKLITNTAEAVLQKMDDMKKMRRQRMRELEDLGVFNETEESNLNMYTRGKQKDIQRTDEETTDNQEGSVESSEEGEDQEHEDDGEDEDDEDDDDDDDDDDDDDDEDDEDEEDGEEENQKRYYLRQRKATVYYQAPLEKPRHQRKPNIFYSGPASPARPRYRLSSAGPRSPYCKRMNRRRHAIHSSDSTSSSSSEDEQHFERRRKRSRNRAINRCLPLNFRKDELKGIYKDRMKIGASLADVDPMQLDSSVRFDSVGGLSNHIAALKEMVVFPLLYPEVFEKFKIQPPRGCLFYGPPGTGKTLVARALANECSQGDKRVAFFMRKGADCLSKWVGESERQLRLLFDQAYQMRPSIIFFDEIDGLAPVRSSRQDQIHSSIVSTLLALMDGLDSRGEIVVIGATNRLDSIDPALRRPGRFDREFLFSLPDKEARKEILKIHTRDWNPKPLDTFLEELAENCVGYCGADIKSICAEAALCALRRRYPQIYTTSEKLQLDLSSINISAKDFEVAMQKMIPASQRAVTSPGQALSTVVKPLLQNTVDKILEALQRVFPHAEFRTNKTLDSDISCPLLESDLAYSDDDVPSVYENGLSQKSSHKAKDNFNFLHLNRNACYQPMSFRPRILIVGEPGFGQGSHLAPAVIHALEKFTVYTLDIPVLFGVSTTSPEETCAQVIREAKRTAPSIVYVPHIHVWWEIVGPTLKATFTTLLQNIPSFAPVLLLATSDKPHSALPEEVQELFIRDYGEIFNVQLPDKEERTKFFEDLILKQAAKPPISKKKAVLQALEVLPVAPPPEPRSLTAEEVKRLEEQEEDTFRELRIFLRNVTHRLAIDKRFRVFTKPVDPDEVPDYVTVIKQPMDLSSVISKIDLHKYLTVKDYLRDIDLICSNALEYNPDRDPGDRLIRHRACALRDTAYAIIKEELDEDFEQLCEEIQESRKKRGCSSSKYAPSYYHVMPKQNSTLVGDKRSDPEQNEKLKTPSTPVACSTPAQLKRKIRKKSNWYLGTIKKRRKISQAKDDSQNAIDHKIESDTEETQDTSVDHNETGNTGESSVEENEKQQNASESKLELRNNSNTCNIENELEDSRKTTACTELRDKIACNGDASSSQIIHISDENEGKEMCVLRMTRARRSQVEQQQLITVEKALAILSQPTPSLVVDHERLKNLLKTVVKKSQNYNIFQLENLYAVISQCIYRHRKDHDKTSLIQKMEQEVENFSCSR
- method summary: Inhibition of N-terminal Hexahistidine-GST-tagged human ATAD2 bromodomain expressed in Escherichia coli BL21 (DE3) Rosetta cells incubated for 1 hr by FRET analysis
Number only, in µM; omit the unit.

structure_smiles=CNC(=O)[C@@H](Cc1ccc([N+](=O)[O-])cc1)NC(=O)c1cc(-c2ccc(CN[C@H](C)c3ccc(C)cc3)o2)ccc1Cl recorded_result=0.022

Lookup: Give its IC50 value. Item: "COc1cc(Cl)c(C(=O)N[C@@H](CN[C@H]2CC[C@@H](N)CC2)Cc2ccc(C#N)cc2)cc1-c1ccc(CN[C@H](C)c2ccc(C)cc2)o1"
Found: 0.022

---

- assayed system: Protein-arginine deiminase type-4 (Homo sapiens, UniProt Q9UM07)
- Sequence (Q9UM07 whole entry): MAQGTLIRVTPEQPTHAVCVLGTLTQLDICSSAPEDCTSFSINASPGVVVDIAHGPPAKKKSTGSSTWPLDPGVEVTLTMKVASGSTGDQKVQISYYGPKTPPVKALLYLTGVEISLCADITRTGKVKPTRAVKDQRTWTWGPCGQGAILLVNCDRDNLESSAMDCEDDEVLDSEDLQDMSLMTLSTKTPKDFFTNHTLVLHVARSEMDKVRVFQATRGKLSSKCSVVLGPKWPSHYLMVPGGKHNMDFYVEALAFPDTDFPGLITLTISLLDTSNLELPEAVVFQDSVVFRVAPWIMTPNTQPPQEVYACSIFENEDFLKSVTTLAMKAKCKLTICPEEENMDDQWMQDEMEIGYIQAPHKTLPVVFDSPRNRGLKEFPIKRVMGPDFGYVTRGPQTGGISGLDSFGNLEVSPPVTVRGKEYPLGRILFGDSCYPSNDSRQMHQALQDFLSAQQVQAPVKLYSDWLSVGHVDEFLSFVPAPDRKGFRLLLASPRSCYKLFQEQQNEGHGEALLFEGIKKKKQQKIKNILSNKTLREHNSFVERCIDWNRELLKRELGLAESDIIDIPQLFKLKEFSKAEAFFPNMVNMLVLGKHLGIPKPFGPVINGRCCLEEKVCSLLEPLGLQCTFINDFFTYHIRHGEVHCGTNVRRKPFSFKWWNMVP
- method summary: Inhibition of N-terminal GST-tagged PAD4 (unknown origin) expressed in Escherichia coli BL21 (DE3) measured after 1 hr by colorimetric assay
assay readout: pIC50
Worth noting: pIC50 values are minus log10 of concentrations stated in mol/L.

Lookup: Give its pIC50 value. Item: "COc1cc(C(=O)N2CCC[C@@H](N)C2)cc2cc(-c3cc4cccnc4n3C)n(N)c12"
Found: 6.70

---

- assayed system: Receptor-type tyrosine-protein kinase FLT3 (Homo sapiens)
- Sequence (P36888 whole entry): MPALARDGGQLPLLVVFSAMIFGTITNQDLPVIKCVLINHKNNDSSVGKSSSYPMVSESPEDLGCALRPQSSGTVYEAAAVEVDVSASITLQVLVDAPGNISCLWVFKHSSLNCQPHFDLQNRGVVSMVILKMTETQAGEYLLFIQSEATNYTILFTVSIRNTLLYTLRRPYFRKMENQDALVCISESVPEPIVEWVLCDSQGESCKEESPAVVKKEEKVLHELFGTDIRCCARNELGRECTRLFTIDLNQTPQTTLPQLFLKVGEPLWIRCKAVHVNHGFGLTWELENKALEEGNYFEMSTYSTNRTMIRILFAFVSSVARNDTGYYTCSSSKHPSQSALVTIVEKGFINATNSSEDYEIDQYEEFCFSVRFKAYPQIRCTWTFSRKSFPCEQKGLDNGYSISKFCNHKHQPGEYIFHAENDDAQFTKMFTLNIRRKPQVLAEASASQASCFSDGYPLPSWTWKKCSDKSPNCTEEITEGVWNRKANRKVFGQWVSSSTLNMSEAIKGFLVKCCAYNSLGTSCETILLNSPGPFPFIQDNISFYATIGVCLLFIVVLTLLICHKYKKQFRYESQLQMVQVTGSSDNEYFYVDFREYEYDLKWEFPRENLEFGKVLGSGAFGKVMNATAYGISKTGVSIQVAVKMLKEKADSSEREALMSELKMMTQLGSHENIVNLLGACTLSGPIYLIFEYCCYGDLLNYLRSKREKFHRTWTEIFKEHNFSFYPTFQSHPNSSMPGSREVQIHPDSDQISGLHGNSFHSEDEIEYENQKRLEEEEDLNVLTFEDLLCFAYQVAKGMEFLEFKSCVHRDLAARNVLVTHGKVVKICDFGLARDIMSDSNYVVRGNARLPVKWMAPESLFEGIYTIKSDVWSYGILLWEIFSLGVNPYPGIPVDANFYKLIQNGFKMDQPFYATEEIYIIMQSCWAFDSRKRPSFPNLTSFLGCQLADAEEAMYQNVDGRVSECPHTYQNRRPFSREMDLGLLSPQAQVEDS
assay readout: IC50

Lookup: # query: IC50 | item "CNC(=O)C[C@@H](NC(=O)[C@@H](Cc1ccccc1)NC(=O)c1c(C)noc1-c1snnc1C)c1ccc(C(F)(F)F)cc1" | system: Receptor-type tyrosine-protein kinase FLT3 (Homo sapiens)
Found: > 100 µM

---

- assayed system: Protein-arginine deiminase type-4 (Homo sapiens, UniProt Q9UM07)
- method summary: Inhibition of N-terminal GST-tagged PAD4 (unknown origin) expressed in Escherichia coli incubated for 1 hr by spectrophotometric method
assay readout: pIC50
Worth noting: pIC50 values are minus log10 of concentrations stated in mol/L.

compound="Cn1c(-c2cc3cc(C(=O)N4CCCC(N)C4)ccc3n2N)cc2ccccc21 (configuration not stated)" assayed_system="Protein-arginine deiminase type-4 (Homo sapiens, UniProt Q9UM07)" recorded_result=5.49

Now for the compound whose pIC50 we want.
Lookup: Give its pIC50 value. Item: "COc1cc(C(=O)N2CCC[C@@H](N)C2)cc2cc(-c3cc4cccnc4n3C)n(N)c12"
Found: 6.70
